- Assay System: rat IL-21R expressed on cells (rat)
- Measurement Protocol: cell-based or functional assay
Reported IC50 (nM) experiment 2, rat T cell proliferation values are given for each entry in this list.
Report as a plain number; the unit nM is understood.

Examples with their reported IC50 (nM) experiment 2, rat T cell proliferation follow.
Binder	Value
AbW (antibody, human IgG1, V domains shown) VH: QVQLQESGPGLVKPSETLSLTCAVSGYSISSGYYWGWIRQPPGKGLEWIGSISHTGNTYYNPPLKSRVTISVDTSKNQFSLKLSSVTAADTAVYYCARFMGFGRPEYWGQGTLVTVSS VL: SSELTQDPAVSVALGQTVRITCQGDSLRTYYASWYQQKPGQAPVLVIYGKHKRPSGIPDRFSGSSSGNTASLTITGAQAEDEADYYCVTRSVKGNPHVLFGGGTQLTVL	94.7
AbU (antibody, human IgG1, V domains shown, Human IgG1 triple-mutant (L234A, L235A, G237A); Framework limits derived; also called VHP/VL25; VHPTM/VL25) VH: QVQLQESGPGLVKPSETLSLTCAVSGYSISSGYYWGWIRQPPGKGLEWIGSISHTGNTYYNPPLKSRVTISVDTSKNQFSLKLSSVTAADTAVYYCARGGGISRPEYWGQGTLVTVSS VL: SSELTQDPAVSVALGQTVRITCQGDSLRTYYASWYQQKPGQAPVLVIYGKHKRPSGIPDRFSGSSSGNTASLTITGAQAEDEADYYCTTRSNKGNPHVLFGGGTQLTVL	105
AbS (antibody, human IgG1, V domains shown, Human IgG1 triple-mutant (L234A, L235A, G237A); Framework limits derived; also called VHP/VL6; VHPTM/VL6) VH: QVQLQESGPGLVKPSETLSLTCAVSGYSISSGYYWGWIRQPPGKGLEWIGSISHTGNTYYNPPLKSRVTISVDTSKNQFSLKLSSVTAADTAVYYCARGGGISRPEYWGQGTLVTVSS VL: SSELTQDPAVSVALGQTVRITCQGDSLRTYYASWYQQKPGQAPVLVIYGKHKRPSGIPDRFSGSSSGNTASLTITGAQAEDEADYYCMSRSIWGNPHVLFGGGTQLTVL	27.1

# IC50 (nM) experiment 2, rat T cell proliferation of AbV (antibody, human IgG1, V domains shown) VH: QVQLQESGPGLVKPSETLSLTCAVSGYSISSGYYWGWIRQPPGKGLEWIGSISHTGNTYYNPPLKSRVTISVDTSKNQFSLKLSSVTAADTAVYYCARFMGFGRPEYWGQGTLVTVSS VL: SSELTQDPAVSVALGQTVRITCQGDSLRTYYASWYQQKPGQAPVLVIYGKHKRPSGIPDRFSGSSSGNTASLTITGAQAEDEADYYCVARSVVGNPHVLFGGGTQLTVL = 59.2
